Listed molecules paired with reported growth inhibition
experiment: NCI Yeast Anticancer Drug Screen. Data for the mec2-1 strain (AID 157); settings: S. cerevisiae mec2-1 strain, at 50.0 µM, hits give high values
This is part of a sample that, as a whole, favours compounds with a hit. Of some 79,000 tested, about 15% had one in any assay.
Field: numeric (%). Do not append units.

>  <MOLECULE>
Cc1c(CCC(C)C)oc2cc3oc(CCC(C)C)c(C)c3cc12

>  <MEASUREMENT_KIND>
growth inhibition

>  <ASSAY_VALUE>
2.2

$$$$
>  <MOLECULE>
CC(C)CNC(=O)Cn1c2c(c3ccccc31)CCCC2

>  <MEASUREMENT_KIND>
growth inhibition

>  <ASSAY_VALUE>
-32.7

$$$$
>  <MOLECULE>
CCCCC(=O)OCC(=O)[C@]1(O)Cc2c(O)c3c(c(O)c2[C@@H](OC2CC(NC(=O)C(F)(F)F)C(O)C(C)O2)C1)C(=O)c1c(OC)cccc1C3=O (some centres not stated)

>  <MEASUREMENT_KIND>
growth inhibition

>  <ASSAY_VALUE>
21.3

$$$$
>  <MOLECULE>
Cc1ccccc1/C1=C/CCCCCC1

>  <MEASUREMENT_KIND>
growth inhibition

>  <ASSAY_VALUE>
11.3

$$$$
>  <MOLECULE>
CCOP(=O)(c1ccccc1)C(C)C (configuration not stated)

>  <MEASUREMENT_KIND>
growth inhibition

>  <ASSAY_VALUE>
-0.5

$$$$
>  <MOLECULE>
C=CCCCCCC(O)C(O)C/C=C\C/C=C\CC (configuration not stated)

>  <MEASUREMENT_KIND>
growth inhibition

>  <ASSAY_VALUE>
4.6

$$$$

# lookup: growth inhibition of CC(=O)C1COC(O)C1C (configuration not stated)
-21.9

---

Listed molecules paired with reported growth inhibition
Experiment: NCI Yeast Anticancer Drug Screen. Data for the mec2-1 strain (AID 157)
Conditions: S. cerevisiae mec2-1 strain, at 50.0 µM, hits give high values
Description: Growth inhibition of yeast strains with defined genetic alterations is measured as a screen for potential anti-cancer activity. Selected strains with alterations in DNA damage repair or cell cycle control were exposed to compounds and growth inhibition was measured relative to vehicle treated controls. The strain used in this assay is mec2-1
About 79,000 compounds went through this panel and 15% of them were active in at least one assay; those are over-represented in the sample as a whole.
Field: numeric (%). Do not append units.

Use the examples below as a reference point.
>  <MOLECULE>
Cc1nnnn1-c1ccc([N+](=O)[O-])cc1

>  <growth inhibition, %>
8.35

$$$$
>  <MOLECULE>
CC1(C)CC(C)(Br)C(Br)C(=O)C1C(O)(C(F)(F)F)C(F)(F)F (stereo not drawn)

>  <growth inhibition, %>
99.8

$$$$
>  <MOLECULE>
CC(C)(CO)NC(=O)c1ccccc1Br

>  <growth inhibition, %>
-11.7

$$$$
>  <MOLECULE>
C/C(N=NC(=S)N1CCCCC1C)=C1\C=CC=CN1O (stereo not drawn)

>  <growth inhibition, %>
4.25

$$$$
>  <MOLECULE>
CC(C)CCCC(C)C1CCC2C3CC=C4C(C)(C)C(OC(=O)c5ccccc5)CCC4(C)C3CCC12C (stereo not drawn)

>  <growth inhibition, %>
-6.6

$$$$

Please find the next molecule below.
# lookup: growth inhibition of N#CC(CC(=O)c1ccccc1)c1ccccc1Cl (stereo not drawn)
24.9
